The measured values listed here are drawn from paper PMC9068870.

Biological target: rat mu-opioid receptor (rMOR) (Rattus norvegicus, UniProt P33535)
Sequence (P33535 whole entry): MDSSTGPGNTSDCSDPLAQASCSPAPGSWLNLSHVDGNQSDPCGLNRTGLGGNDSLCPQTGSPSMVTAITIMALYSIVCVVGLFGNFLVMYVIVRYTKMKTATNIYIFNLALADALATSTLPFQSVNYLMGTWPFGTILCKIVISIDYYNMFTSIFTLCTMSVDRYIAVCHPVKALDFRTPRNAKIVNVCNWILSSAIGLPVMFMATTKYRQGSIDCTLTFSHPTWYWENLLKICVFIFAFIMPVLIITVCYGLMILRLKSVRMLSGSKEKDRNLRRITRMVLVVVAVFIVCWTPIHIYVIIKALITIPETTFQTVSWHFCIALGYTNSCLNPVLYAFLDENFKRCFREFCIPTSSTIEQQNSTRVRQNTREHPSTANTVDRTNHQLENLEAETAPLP
measurement type: Ki

Lookup: Give Ki (rat mu-opioid receptor (rMOR) (Rattus norvegicus, UniProt P33535)) of the following compound: CCCCCCC(C)(C)c1cc(OC)c(C2(O)CCCC(C)C2)c(OC)c1 (stereo not shown) [O-1966]
Found: 3.04 µM
